ASSAY PROCEDURE: Plasma niclosamide pharmacokinetics (LCMS, non-compartmental analysis)
Type: in vivo, human
RECORDED CONDITIONS: human, plasma, po, 1000 mg, first dose 1000 mg PO; Clast/elimination rate constant used for extrapolation; Pt# 19, 20; read-out: First dose AUC0-∞
QUANTITY NAME: AUC(0-inf)
Hey, just the number and the unit after it is fine.

Input: Given the compound O=C(Nc1ccc([N+](=O)[O-])cc1Cl)c1cc(Cl)ccc1O [niclosamide, 2',5-dichloro-4'-nitrosalicylanilide] , what is its reported AUC(0-inf)?
Output: 1060 ng·h/mL

###

ASSAY PROCEDURE: Plasma niclosamide pharmacokinetics (LCMS, non-compartmental analysis)
Format: in vivo, human
RECORDED CONDITIONS: human, plasma, po, 1000 mg, first dose 1000 mg PO; Pt# 19, 20; read-out: Apparent oral clearance (clearance divided by fraction absorbed) (converted)
QUANTITY NAME: CL/F (mL/min/kg)
# number only, unit mL/min/kg dropped from output

Input: Given the molecule O=C(Nc1ccc([N+](=O)[O-])cc1Cl)c1cc(Cl)ccc1O [niclosamide, 2',5-dichloro-4'-nitrosalicylanilide] , what is its reported CL/F?
Output: 203
